assay notes: Pharmacokinetic study in rats
Format: in vivo
run conditions: rat, plasma, 2 mg/kg iv
Procedure: 7. Pharmacokinetics Study The HPLC conditions were as follows: Shimadzu LC30AD spectrometer ; column, SHIMADZU C18 (2.1 mm×50 mm, 2 μm); mobile phase A: 0.1% FA-Acetonitrile; mobile phase B: 0.1% FA-Deionized water; ﬂow rate, 0.4 mL/min; column temperature: 25 °C; UV detection was performed at 210 nm. […] The plasma samples were analyzed for drug and internal standard via the LCMS/MS protocol.
measured metric: Tmax (min)
Write down the numeric answer in min and omit the unit.

Note Tmax for the compound shown: CN(C)CCC(Oc1cccc2c1OCO2)c1ccc(OCCCN2CCCCC2)cc1.O=C(O)C(=O)O (stereo not shown) [Compound 11b]
4.8

====

test target: Dopamine D1 receptor (Rattus norvegicus, UniProt P18901)
Sequence (P18901 whole entry): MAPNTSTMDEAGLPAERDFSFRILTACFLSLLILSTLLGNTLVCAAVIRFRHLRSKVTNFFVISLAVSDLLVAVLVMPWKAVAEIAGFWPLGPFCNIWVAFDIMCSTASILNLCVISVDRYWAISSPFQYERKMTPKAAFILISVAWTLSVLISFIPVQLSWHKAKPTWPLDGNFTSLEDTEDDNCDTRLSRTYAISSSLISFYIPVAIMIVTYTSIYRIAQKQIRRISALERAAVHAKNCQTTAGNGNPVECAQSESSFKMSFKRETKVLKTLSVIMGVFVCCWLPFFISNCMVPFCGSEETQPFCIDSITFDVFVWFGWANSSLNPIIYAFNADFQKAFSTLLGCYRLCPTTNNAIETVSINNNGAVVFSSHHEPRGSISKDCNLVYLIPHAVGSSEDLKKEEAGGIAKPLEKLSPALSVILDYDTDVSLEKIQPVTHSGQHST
assay notes: Dopamine D1 receptor binding ([3H]-SCH23390)
run conditions: rat striatum
pKi: −log10 of the molar value.
measured metric: pKi

Note pKi for the compound shown: CN(C)CCC(Oc1cccc2c1OCO2)c1ccc(OCCCN2CCCCC2)cc1.O=C(O)C(=O)O (stereo not shown) [Compound 11b]
< 6.00

====

test target: M5 muscarinic cholinergic receptor (Homo sapiens, UniProt P08912)
Construct: blood lymphocytes were used at a concentration of 1 × 10⁶ cells; endogenous in cells
Sequence (P08912 1-532): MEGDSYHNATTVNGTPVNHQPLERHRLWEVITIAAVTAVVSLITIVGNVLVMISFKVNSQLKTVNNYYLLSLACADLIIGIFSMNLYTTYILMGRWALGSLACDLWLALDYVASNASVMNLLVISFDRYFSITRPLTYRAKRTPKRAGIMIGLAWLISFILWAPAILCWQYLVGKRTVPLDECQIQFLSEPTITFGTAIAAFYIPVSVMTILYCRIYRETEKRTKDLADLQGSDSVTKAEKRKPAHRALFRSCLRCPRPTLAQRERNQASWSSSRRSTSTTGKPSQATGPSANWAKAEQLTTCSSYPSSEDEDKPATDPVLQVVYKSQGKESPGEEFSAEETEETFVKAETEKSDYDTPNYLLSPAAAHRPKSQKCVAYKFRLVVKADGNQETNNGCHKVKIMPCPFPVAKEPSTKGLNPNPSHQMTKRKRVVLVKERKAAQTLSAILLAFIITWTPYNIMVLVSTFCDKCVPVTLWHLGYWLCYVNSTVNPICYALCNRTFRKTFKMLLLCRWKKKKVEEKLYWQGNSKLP
assay notes: Muscarinic M5 receptor binding (lymphocyte suspension)
run conditions: lymphocyte suspension and sections
measured metric: Ki

Note Ki for the compound shown: CN(C)CCC(Oc1cccc2c1OCO2)c1ccc(OCCCN2CCCCC2)cc1.O=C(O)C(=O)O (stereo not shown) [Compound 11b]
> 1000 nM

====

test target: Adrenergic α2 receptor
assay notes: Adrenergic α2 receptor binding ([3H]-rauwolscine)
run conditions: rat cerebral cortex
measured metric: Ki

Send back Adrenergic α2 receptor Ki of CN(C)CCC(Oc1cccc2c1OCO2)c1ccc(OCCCN2CCCCC2)cc1.O=C(O)C(=O)O (stereo not shown) [Compound 11b] only.
> 1 µM

====

assay notes: Acute toxicity, up-and-down procedure
run conditions: female, rat, in vivo; females, F344 rats, oral
measured metric: LD50 at 24 h (mg/kg)
Write down the numeric answer in mg/kg and omit the unit.

Note LD50 at 24 h for the molecule shown: CN(C)CCC(Oc1cccc2c1OCO2)c1ccc(OCCCN2CCCCC2)cc1.O=C(O)C(=O)O (stereo not shown) [Compound 11b]
512

====

assay notes: Pharmacokinetic study in rats
Format: in vivo
run conditions: rat, plasma, 2 mg/kg iv
measured metric: Cmax
Answers without a unit are incomplete; give the number and then its unit.

Note Cmax for the compound shown: CN(C)CCC(Oc1cccc2c1OCO2)c1ccc(OCCCN2CCCCC2)cc1.O=C(O)C(=O)O (stereo not shown) [Compound 11b]
224 ng/mL

====

assay notes: Pharmacokinetic study in rats
Assay type: in vivo
run conditions: rat, plasma, 2 mg/kg iv
measured metric: AUC(0-inf) (ng·h/mL)
Write down the numeric answer in ng·h/mL and omit the unit.

Note AUC(0-inf) for the compound shown: CN(C)CCC(Oc1cccc2c1OCO2)c1ccc(OCCCN2CCCCC2)cc1.O=C(O)C(=O)O (stereo not shown) [Compound 11b]
265

====

test target: NMDA receptor (Rattus norvegicus)
measured metric: Ki

Send back NMDA receptor (Rattus norvegicus) Ki of CN(C)CCC(Oc1cccc2c1OCO2)c1ccc(OCCCN2CCCCC2)cc1.O=C(O)C(=O)O (stereo not shown) [Compound 11b] only.
> 1 µM

====

test target: σ2 receptor (Cavia porcellus)
Sequence (H0V073 1-176): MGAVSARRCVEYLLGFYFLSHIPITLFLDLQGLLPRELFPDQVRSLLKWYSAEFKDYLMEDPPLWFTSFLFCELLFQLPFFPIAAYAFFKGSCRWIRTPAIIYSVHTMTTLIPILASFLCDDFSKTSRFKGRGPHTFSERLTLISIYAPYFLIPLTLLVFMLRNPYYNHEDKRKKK
pKi: −log10 of the molar value.
measured metric: pKi

Note pKi for the molecule shown: CN(C)CCC(Oc1cccc2c1OCO2)c1ccc(OCCCN2CCCCC2)cc1.O=C(O)C(=O)O (stereo not shown) [Compound 11b]
< 6.00

====

test target: NET (Rattus norvegicus)
Sequence (Q63380 1-617): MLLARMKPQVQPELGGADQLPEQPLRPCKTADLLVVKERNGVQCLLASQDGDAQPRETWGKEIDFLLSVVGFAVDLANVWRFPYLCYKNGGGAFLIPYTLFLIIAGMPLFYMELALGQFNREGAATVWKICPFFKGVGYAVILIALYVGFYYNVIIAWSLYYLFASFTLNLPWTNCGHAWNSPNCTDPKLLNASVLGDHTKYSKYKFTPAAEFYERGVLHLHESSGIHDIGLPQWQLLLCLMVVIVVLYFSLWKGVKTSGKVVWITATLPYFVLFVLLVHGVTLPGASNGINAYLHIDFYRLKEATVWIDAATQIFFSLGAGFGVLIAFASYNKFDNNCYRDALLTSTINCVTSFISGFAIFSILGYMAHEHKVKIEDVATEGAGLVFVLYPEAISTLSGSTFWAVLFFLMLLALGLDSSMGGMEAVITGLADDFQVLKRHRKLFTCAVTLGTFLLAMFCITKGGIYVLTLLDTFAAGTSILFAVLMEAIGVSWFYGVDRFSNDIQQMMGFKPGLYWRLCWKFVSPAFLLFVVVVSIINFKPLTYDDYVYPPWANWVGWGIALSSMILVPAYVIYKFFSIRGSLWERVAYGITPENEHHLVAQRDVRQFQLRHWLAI
assay notes: Monoamine uptake transporter assay, [3H]NE uptake by NET
run conditions: [3H]NE uptake, antagonist assay
measured metric: pIC50
As a rule, pIC50 stands for the negative log10 of the concentration, concentration in M.

Note pIC50 for the molecule shown: CN(C)CCC(Oc1cccc2c1OCO2)c1ccc(OCCCN2CCCCC2)cc1.O=C(O)C(=O)O (stereo not shown) [Compound 11b]
7.30

====

test target: M4 muscarinic cholinergic receptor (Homo sapiens, UniProt P08173)
Construct: blood lymphocytes were used at a concentration of 1 × 10⁶ cells; endogenous in cells
Sequence (P08173 whole entry): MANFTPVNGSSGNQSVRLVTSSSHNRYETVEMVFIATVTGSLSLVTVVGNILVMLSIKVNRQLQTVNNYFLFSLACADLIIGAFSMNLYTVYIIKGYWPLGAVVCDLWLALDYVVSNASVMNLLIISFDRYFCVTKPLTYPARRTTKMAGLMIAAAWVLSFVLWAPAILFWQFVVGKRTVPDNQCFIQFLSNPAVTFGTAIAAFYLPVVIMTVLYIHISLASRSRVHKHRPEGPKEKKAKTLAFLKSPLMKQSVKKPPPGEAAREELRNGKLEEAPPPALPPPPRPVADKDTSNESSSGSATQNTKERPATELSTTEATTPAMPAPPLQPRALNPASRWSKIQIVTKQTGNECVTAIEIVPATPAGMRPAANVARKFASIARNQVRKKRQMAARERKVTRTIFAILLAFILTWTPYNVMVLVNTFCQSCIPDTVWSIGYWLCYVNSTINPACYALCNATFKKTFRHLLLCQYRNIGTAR
assay notes: Muscarinic M4 receptor binding (lymphocyte suspension)
run conditions: lymphocyte suspension and sections
pKi: −log10 of the molar value.
measured metric: pKi

Note pKi for the compound shown: CN(C)CCC(Oc1cccc2c1OCO2)c1ccc(OCCCN2CCCCC2)cc1.O=C(O)C(=O)O (stereo not shown) [Compound 11b]
< 6.00

====

test target: Histamine H4 receptor (Homo sapiens, UniProt Q9H3N8)
Sequence (Q9H3N8 whole entry, species assumed): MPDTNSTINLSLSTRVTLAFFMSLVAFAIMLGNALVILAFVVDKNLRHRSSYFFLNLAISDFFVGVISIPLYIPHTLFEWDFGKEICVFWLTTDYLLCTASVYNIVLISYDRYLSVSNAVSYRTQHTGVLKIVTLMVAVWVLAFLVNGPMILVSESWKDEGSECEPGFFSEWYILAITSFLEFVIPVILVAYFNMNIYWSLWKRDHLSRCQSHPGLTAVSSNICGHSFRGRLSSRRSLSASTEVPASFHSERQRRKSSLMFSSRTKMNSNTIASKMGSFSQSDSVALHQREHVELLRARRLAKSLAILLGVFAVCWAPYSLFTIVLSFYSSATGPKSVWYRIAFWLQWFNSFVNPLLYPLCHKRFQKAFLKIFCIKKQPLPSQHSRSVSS
measured metric: Ki

Send back Histamine H4 receptor (Homo sapiens, UniProt Q9H3N8) Ki of CN(C)CCC(Oc1cccc2c1OCO2)c1ccc(OCCCN2CCCCC2)cc1.O=C(O)C(=O)O (stereo not shown) [Compound 11b] only.
> 1000 nM

====

assay notes: Pharmacokinetic study in rats
Assay type: in vivo
run conditions: rat, plasma, 2 mg/kg iv
measured metric: half-life (h)
Write down the numeric answer in h and omit the unit.

Note half-life for the compound shown: CN(C)CCC(Oc1cccc2c1OCO2)c1ccc(OCCCN2CCCCC2)cc1.O=C(O)C(=O)O (stereo not shown) [Compound 11b]
1.3

====

test target: SERT (Rattus norvegicus)
Construct: [3H]-paroxetine, rat cerebral cortex
Sequence (P31652 whole entry): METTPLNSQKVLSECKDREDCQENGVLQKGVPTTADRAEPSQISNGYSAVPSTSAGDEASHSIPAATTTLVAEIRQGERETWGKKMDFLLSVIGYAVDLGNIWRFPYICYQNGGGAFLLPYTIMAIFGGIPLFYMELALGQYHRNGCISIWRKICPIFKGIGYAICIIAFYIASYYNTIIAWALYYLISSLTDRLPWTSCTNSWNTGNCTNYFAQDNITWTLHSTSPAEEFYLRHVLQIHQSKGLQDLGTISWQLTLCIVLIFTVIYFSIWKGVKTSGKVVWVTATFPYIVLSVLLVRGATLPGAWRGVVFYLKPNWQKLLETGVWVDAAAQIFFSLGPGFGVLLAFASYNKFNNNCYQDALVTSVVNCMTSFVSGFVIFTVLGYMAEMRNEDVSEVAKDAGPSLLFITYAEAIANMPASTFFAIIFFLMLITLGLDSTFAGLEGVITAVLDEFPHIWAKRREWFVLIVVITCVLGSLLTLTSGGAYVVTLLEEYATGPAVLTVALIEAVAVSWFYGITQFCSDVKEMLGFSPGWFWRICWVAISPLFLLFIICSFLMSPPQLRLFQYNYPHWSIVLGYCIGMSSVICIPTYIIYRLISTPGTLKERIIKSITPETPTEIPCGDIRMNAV
assay notes: Monoamine uptake transporter assay, [3H]5-HT uptake by SERT
run conditions: [3H]5-HT uptake, antagonist assay
measured metric: IC50 (nM)
Write down the numeric answer in nM and omit the unit.

Note IC50 for the compound shown: CN(C)CCC(Oc1cccc2c1OCO2)c1ccc(OCCCN2CCCCC2)cc1.O=C(O)C(=O)O (stereo not shown) [Compound 11b]
20.1

====

assay notes: Pharmacokinetic study in rats
Type: in vivo
run conditions: rat, plasma, 20 mg/kg po
measured metric: Tmax (h)
Write down the numeric answer in h and omit the unit.

Note Tmax for the compound shown: CN(C)CCC(Oc1cccc2c1OCO2)c1ccc(OCCCN2CCCCC2)cc1.O=C(O)C(=O)O (stereo not shown) [Compound 11b]
2

====

Entries with reported pKi on UniProt Q63380
As a rule, pKi stands for the negative log10 of the concentration, concentration in M.

Record excerpt, results attached:
molecule	pKi
CC1CCCCN1CCCOc1ccc(C(CCN(C)C)Oc2cccc3c2OCO3)cc1.O=C(O)C(=O)O (stereo not drawn) [Compound 11p]	7.45
CC(C)N1CCN(CCCOc2ccc(C(CCN(C)C)Oc3cccc4c3OCO4)cc2)CC1.O=C(O)C(=O)O (stereo not drawn) [Compound 11f]	7.24
CN(C)CCC(Oc1cccc2c1OCO2)c1ccc(OCCCN2CCCC2)cc1.O=C(O)C(=O)O (stereo not drawn) [Compound 11a]	7.72
CN(C)CCC(Oc1cccc2c1OCO2)c1ccc(OCCCN2CCC(C#N)CC2)cc1.O=C(O)C(=O)O (stereo not drawn) [Compound 11v]	7.31
CN(C)CCC(Oc1cccc2c1OCO2)c1ccc(OCCCN2CCC(F)CC2)cc1.O=C(O)C(=O)O (stereo not drawn) [Compound 11t]	7.37
CN(C)CCC(Oc1cccc2c1OCO2)c1cccc(OCCCN2CCOCC2)c1.O=C(O)C(=O)O (stereo not drawn) [Compound 11j]	6.82
CN(C)CCC(Oc1cccc2c1OCO2)c1ccc(OCCCN2CCN(C)CC2)cc1.O=C(O)C(=O)O (stereo not drawn) [Compound 11d]	7.06
CN(C)CCC(Oc1cccc2c1OCO2)c1ccc(OCCCN2CCCCC2)cc1.O=C(O)C(=O)O (stereo not drawn) [Compound 11b]	7.98

Send back UniProt Q63380 pKi of CN(C)CCC(Oc1cccc2c1OCO2)c1cccc(OCCCN2CCCCC2)c1.O=C(O)C(=O)O (stereo not drawn) [Compound 11i] only.
6.98

Send back UniProt Q63380 pKi of CC1CCN(CCCOc2ccc(C(CCN(C)C)Oc3cccc4c3OCO4)cc2)CC1.O=C(O)C(=O)O (stereo not drawn) [Compound 11r] only.
7.42

Send back UniProt Q63380 pKi of CC1CCCN(CCCOc2ccc(C(CCN(C)C)Oc3cccc4c3OCO4)cc2)C1.O=C(O)C(=O)O (stereo not drawn) [Compound 11q] only.
7.68

Send back UniProt Q63380 pKi of CN(C)CCC(Oc1cccc2c1OCO2)c1ccc(OCCCN2CCC(Cl)CC2)cc1.O=C(O)C(=O)O (stereo not drawn) [Compound 11u] only.
7.30

Send back UniProt Q63380 pKi of CC1CC(C)CN(CCCOc2ccc(C(CCN(C)C)Oc3cccc4c3OCO4)cc2)C1.O=C(O)C(=O)O (stereo not drawn) [Compound 11s] only.
7.60

Send back UniProt Q63380 pKi of CN(C)CCC(Oc1cccc2c1OCO2)c1cccc(OCCCN2CCCC2)c1.O=C(O)C(=O)O (stereo not drawn) [Compound 11h] only.
6.84
